B1: Centrosomal protein of 55 kDa (Homo sapiens), Q53EZ4 (parent)
chain: MSSRSTKDLIKSKWGSKPSNSKSETTLEKLKGEIAHLKTSVDEITSGKGKLTDKERHRLLEKIRVLEAEKEKNAYQLTEKDKEIQRLRDQLKARYSTTTLLEQLEETTREGERREQVLKALSEEKDVLKQQLSAATSRIAELESKTNTLRLSQTVAPNCFNSSINNIHEMEIQLKDALEKNQQWLVYDQQREVYVKGLLAKIFELEKKTETAAHSLPQQTKKPESEGYLQEEKQKCYNDLLASAKKDLEVERQTITQLSFELSEFRRKYEETQKEVHNLNQLLYSQRRADVQHLEDDRHKTEKIQKLREENDIARGKLEEEKKRSEELLSQVQFLYTSLLKQQEEQTRVALLEQQMQACTLDFENEKLDRQHVQHQLHVILKELRKARNQITQLESLKQLHEFAITEPLVTFQGETENREKVAASPKSPTAALNESLVECPKCNIQYPATEHRDLLVHVEYCSK

Variants of: B1
Conditions: with anx11_human ANXA11, P50995
Sequence (P50995 whole entry): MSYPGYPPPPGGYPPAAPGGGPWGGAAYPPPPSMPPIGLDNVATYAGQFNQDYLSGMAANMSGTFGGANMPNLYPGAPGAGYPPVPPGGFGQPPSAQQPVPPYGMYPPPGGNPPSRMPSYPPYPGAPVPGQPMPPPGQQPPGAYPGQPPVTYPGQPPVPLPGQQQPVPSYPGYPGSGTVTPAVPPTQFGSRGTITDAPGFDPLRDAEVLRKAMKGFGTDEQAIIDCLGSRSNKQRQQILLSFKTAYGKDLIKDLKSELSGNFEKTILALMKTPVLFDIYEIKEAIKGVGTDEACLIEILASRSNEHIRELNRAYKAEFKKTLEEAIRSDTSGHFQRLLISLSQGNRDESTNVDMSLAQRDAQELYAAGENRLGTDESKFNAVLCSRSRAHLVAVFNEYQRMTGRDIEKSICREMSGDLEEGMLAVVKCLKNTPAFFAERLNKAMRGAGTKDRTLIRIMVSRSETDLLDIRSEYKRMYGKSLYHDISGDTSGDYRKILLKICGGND
RECORDED ENDPOINT: effect of a mutation on the interaction

C236R : with no effect
R348K : with no effect
H57Q : with no effect
